# test-system: T1, O9
# T1 chain: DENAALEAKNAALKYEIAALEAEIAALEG
# assay-remarks: two-hybrid library CCNG1;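 further: natural log of median RNA to DNA barcode read ratio; higher means stronger binding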
We use -2 as the dividing line for interaction score: on or above the line is Met, below is Not met.

binder: DKIAALKAEIAALEYENAALEAENAALEG [O11]
assigned-label: Not met
//
binder: DKNAALKAKIAALKYENAALEAKIAALKG [O6]
assigned-label: Met
//
binder: DKNAALKAKIAALKYKNAALKAEIAALEG [O13]
assigned-label: Not met
//
binder: DENAALEAEIAALEYENAALEAKIAALKG [O14]
assigned-label: Not met
//
binder: DKIAALKAKNAALKYKIAALKAENAALEG [O7]
assigned-label: Not met
//
binder: DKIAALKAEIAALEYKNAALKAKNAALKG [O4]
assigned-label: Met
//
binder: DKNAALKAENAALEYEIAALEAEIAALEG [O1]
assigned-label: Met
//
binder: DEIAALEAKIAALKYENAALEAENAALEG [O3]
assigned-label: Not met
//
binder: DEIAALEAENAALEYEIAALEAKNAALKG [O8]
assigned-label: Met
